Test system: MCF7
Assay: NCI tumour cell line growth inhibition, 48 h
Calls of active or inactive are those of the source. Rule as the data show it: active = GI50 up to about 1.1 µM and inactive = higher.
Form entry, call: pick from active, inactive

Dear all, I need the recorded test outcome for COc1ccc(-c2cc(-c3ccncc3)nc(N)c2-c2ccc(F)cc2)cc1 , thank you. inactive

Dear all, I need the recorded test outcome for CC1(C)N=C(N)N=C(N)N1c1ccc(CCCCc2ccc(Cl)cc2Cl)cc1 , thank you. active

Dear all, I need the recorded test outcome for C=CCC(NCc1ccccc1)[C@H](OCc1ccccc1)[C@@H]1COC(C)(C)O1 (stereo partly drawn) , thank you. inactive

###

Tested on: HT-29
Assay: NCI tumour cell line growth inhibition, 48 h
The source made the active and inactive calls. Rule as the data show it: active = GI50 up to about 1.1 µM and inactive = higher.
Form entry, call: pick from active, inactive

Dear all, I need the recorded test outcome for Nc1ccc(S(=O)(=O)Nc2cnc3c(Cl)cccc3n2)cc1 [CHLORSULFAQUINOXALINE] , thank you. inactive

Dear all, I need the recorded test outcome for O=C(CC(=O)C1CCOC1=O)C(=O)Nc1cccc(Cl)c1 (stereo not given) , thank you. inactive

Dear all, I need the recorded test outcome for CCCCCCCCCCCCCCCCOc1ccc(/C=C/C2=[N+](CCCl)CCO2)cc1 , thank you. inactive

Dear all, I need the recorded test outcome for CC(C)(C(=O)NN)c1ccccc1 , thank you. inactive

Dear all, I need the recorded test outcome for CC1=C(SCc2ccccc2)C(=O)c2ccccc2C1=O , thank you. inactive

Dear all, I need the recorded test outcome for Cc1occc1C(=S)Nc1ccc(Cl)c(C(=O)OC(C)C2CC2)c1 (stereo not given) , thank you. inactive

Dear all, I need the recorded test outcome for CN1CCN(c2nc3ccccc3nc2C(=O)c2ccc(Cl)cc2)CC1 , thank you. inactive

Dear all, I need the recorded test outcome for OC1CCC(COC(c2ccccc2)(c2ccccc2)c2ccccc2)O1 (stereo not given) , thank you. inactive

Dear all, I need the recorded test outcome for Cc1sc2nc(-c3ccc([N+](=O)[O-])cc3)c(/C=N/N=C(N)N)n2c1C , thank you. active

Dear all, I need the recorded test outcome for CN(C)S(=O)(=O)c1ccc(Nc2ccc(O)c3c2C(=O)c2c([N+](=O)[O-])ccc(O)c2C3=O)cc1 , thank you. inactive

###

I'd appreciate it if you could supply GI50 values for the items below.
Test system: HOP-62
Test: NCI tumour cell line growth inhibition, 48 h
Activity calls are given as the source filed them. Cut-off read from the data, not from the text of the source: active = GI50 up to about 1.1 µM and inactive = higher.

Find the measured GI50 of Cc1nn(C(=O)c2ccc(Cl)cc2)c2c1C(/C=C/c1ccccc1)SC(=N)N2 (stereo not given) and report it. > 10 µM (inactive)

Find the measured GI50 of C[N+](C)(C)c1ccc(C(N)C(=O)O)cc1 (stereo not given) and report it. > 100 µM (inactive)

Find the measured GI50 of COc1ccc(OC)c(NC2=NCCO2)c1 and report it. > 100 µM (inactive)

Find the measured GI50 of Fc1cccc(F)c1C1SCC2=Nc3ccccc3CN21 (stereo not given) and report it. 20.8 µM (inactive)

Find the measured GI50 of CC(C)C/N=C(\N)N=C(N)N and report it. > 100 µM (inactive)

###

Tested on: MDA-MB-435
Test: NCI tumour cell line growth inhibition, 48 h
Activity calls are given as the source filed them. Rule as the data show it: active = GI50 up to about 1.1 µM and inactive = higher.
Form entry, call: pick from active, inactive

Dear all, I need the recorded test outcome for CCC(C)C(=O)OC1C(=O)OC2CC3C(C)=CC(=O)C(O)C3(C)C3C4(O)OCC23C1C(C)C4O (stereo not given) , thank you. active

Dear all, I need the recorded test outcome for OC1(c2ccccc2)CC2CCC(C1)N2CCCC1(c2ccc(F)cc2)OCCO1 (stereo not given) , thank you. inactive

Dear all, I need the recorded test outcome for COC(=O)C1=C(C)C(=O)[C@]23C(CCCC[C@H]12)C(=O)[C@H](C(=O)OC)C3C (stereo not given in full) , thank you. inactive

Dear all, I need the recorded test outcome for CC/C(=N/O)c1ccc(Br)s1 , thank you. inactive

Dear all, I need the recorded test outcome for Oc1[nH]c(Nc2ccc(F)c(Cl)c2)nc2ncnc1-2 , thank you. inactive

Dear all, I need the recorded test outcome for CCOC(=O)Nc1cc2c(c(N)n1)N=C(c1ccc(OC)cc1)CN2 , thank you. active

Dear all, I need the recorded test outcome for Cc1cc(O)nc(NN2C(Cl)C(=O)C2c2ccccc2O)n1 (stereo not given) , thank you. inactive

Dear all, I need the recorded test outcome for N#CCCN(CCCN(C(=O)N(c1ccccc1)c1ccccc1)c1ccccc1)C(=O)Nc1ccccc1 , thank you. inactive

Dear all, I need the recorded test outcome for C=C(Br)CNCC(=C)Br , thank you. inactive

Dear all, I need the recorded test outcome for Cc1sc2nc(-c3ccc([N+](=O)[O-])cc3)c(/C=N/N=C(N)N)n2c1C , thank you. active

Dear all, I need the recorded test outcome for Nc1ccc(S(=O)(=O)Nc2cnc3c(Cl)cccc3n2)cc1 [CHLORSULFAQUINOXALINE] , thank you. inactive

Dear all, I need the recorded test outcome for CC(C)C/N=C(\N)N=C(N)N , thank you. inactive

Dear all, I need the recorded test outcome for CCCC1C(=O)Nc2cccc3ncn(c23)C1=O (stereo not given) , thank you. inactive

Dear all, I need the recorded test outcome for COC1=CC(=O)c2c(c(COP(=O)(N(C)CCBr)N(C)CCBr)cn2C)C1=O , thank you. active

Dear all, I need the recorded test outcome for O=C1CC(=O)c2c(Cl)sc(Cl)c21 , thank you. inactive

Data provenance: ChEMBL document CHEMBL1201862
